molecular target: CDK2/CyclinA (Homo sapiens, UniProt P24941); experiment: In vitro kinase activity assay (PKLight), CDK2/Cyclin A; conditions: 0.5 μM ATP
pIC50: −log10 of the molar value.
OUTCOME MEASURE: pIC50

> print(dat)
                                   compound                               system.name           val
1  COc1cc2cc(c1OCCN1CCCC1)COC/C=C/COCc1cccc(c1)-c1ccnc(n1)N2  CDK2/CyclinA (Homo sapiens, UniProt P24941)  5.30 to 6.00
2  C1=C/COCc2cc(ccc2OCCN2CCCC2)Nc2nccc(n2)-c2cncc(c2)COC/1  CDK2/CyclinA (Homo sapiens, UniProt P24941)  5.30 to 6.00
3  c1cc2cc(c1)-c1ccnc(n1)Nc1ccc(OCCN3CCCC3)c(c1)COCC1CC1COC2 (stereo not shown)  CDK2/CyclinA (Homo sapiens, UniProt P24941)  5.30 to 6.00

--- query ---
What value of measured pIC50 is listed for C1=C2COC/C=C/COCc3cc(ccc3OCCN3CCCC3)Nc3nccc(n3)C(=C1)S2 ?
< 5.30

====

IC50 data for JAK2 (Homo sapiens) follow.

> print(dat)
                                   compound        val
1  COc1ccc2cc1COC/C=C\COc1cccc(c1)-c1ccnc(n1)N2 [Compound 7]  > 5000 nM
2  Fc1cc2cc(c1)-c1ccnc(n1)Nc1ccc(OCCN3CCCC3)c(c1)COC/C=C/CCO2 [Compound 36]  ≤ 1000 nM
3  COc1ccc2cc1COC/C=C/COCc1cc(ccc1OCCN1CCCC1)Nc1nccc-2n1 [Compound 14]  ≤ 1000 nM

--- query ---
What value of measured IC50 is listed for CCN(CC)CCOc1ccc2cc1COC/C=C/CCOc1cccc(c1)-c1nc(ncc1C)N2 [Compound 29] ?
≤ 1000 nM

====

Recorded pIC50, one value per entry.
Target: CDK2/CyclinA (Homo sapiens, UniProt P24941)
Experiment: In vitro kinase activity assay (PKLight), CDK2/Cyclin A
Settings: 0.5 μM ATP
Description: The recombinant enzymes (CDK2/CyclinA, FLT3, JAK2 and JAK2 V617F) were purchased from Invitrogen (Cat #PV3267, 3182, 4210 and 4347 respectively). All assays were carried out in 384-well white microtiter plates using the PKLight assay system from Cambrex (East Rutherford, N.J.). […] Luminescence signals were detected on a multi-label plate reader (Victor^2 V 1420, Perkin-Elmer). […]
pIC50: −log10 of the molar value.

> print(dat)
                                 mol.smiles  outcome.measure           val
1  Fc1cc2cc(c1)-c1ccnc(n1)Nc1ccc(OCCN3CCCC3)c(c1)COC/C=C/CCO2            pIC50  5.30 to 6.00

What value of measured pIC50 is listed for COc1ccc2cc1COC/C=C\COc1cccc(c1)-c1ccnc(n1)N2 ?
< 5.30

What value of measured pIC50 is listed for CCN(CC)CCOc1ccc2cc1COC/C=C/CCOc1cccc(c1)-c1ccnc(n1)N2 ?
< 5.30

What value of measured pIC50 is listed for COc1ccc2cc1COC/C=C/COc1cccc(c1)-c1ccnc(n1)N2 ?
≥ 6.00

What value of measured pIC50 is listed for COc1ccc2cc1COC/C=C/COCc1cc(ccc1OCCN1CCCC1)Nc1nccc-2n1 ?
< 5.30

What value of measured pIC50 is listed for C1=C/COCc2cc(ccc2OCCN2CCCC2)Nc2nccc(n2)-c2cc(co2)COC/1 ?
< 5.30

What value of measured pIC50 is listed for CCN(CC)CCOc1ccc2cc1COC/C=C/CCOc1cccc(c1)-c1nc(ncc1C)N2 ?
< 5.30

What value of measured pIC50 is listed for CCN(CC)CCOc1ccc2cc1COC/C=C/COCc1cccc(c1)-c1ccnc(n1)N2 ?
5.30 to 6.00

What value of measured pIC50 is listed for CCN(CC)CCOc1ccc2cc1COC/C=C/CCOc1cc(ccc1OC)-c1ccnc(n1)N2 ?
< 5.30

What value of measured pIC50 is listed for C1=C/COCc2cc(ccc2OCCN2CCCC2)Nc2nccc(n2)-c2coc(c2)COC/1 ?
< 5.30

What value of measured pIC50 is listed for C1=C2COC/C=C/COCc3cc(ccc3OCCN3CCCC3)Nc3nccc(n3)C(=C1)O2 ?
< 5.30

What value of measured pIC50 is listed for CN1CCN(c2ccc3cc2COC/C=C/COCc2cccc(c2)-c2ccnc(n2)N3)CC1 ?
< 5.30

====

target: CDK2/CyclinA (Homo sapiens, UniProt P24941); construct: purchased Invitrogen PV3267; assay: In vitro kinase activity assay (PKLight), CDK2/Cyclin A; assay type: biochemical; details: 0.5 μM ATP
OUTCOME MEASURE: IC50

> print(dat)
                                 mol.smiles  outcome.measure        val
1  C1=C/COCc2cc(ccc2N2CCOCC2)Nc2nccc(n2)-c2cccc(c2)COC/1             IC50     > 5 µM
2  C1=C/COCc2cc(ccc2OCCN2CCCC2)Nc2nccc(n2)-c2csc(c2)COC/1             IC50     > 5 µM
3  Fc1ccc2cc1COC/C=C/COCc1cc(ccc1OCCN1CCCC1)Nc1nccc-2n1             IC50  1 to 5 µM

What value of measured IC50 is listed for C1=C/COCc2cc(ccc2OCCN2CCCC2)Nc2nccc(n2)-c2cccc(c2)COC/1 ?
1 to 5 µM
